target_desc: Polyunsaturated fatty acid 5-lipoxygenase (Homo sapiens, UniProt P09917)
Sequence (P09917 whole entry): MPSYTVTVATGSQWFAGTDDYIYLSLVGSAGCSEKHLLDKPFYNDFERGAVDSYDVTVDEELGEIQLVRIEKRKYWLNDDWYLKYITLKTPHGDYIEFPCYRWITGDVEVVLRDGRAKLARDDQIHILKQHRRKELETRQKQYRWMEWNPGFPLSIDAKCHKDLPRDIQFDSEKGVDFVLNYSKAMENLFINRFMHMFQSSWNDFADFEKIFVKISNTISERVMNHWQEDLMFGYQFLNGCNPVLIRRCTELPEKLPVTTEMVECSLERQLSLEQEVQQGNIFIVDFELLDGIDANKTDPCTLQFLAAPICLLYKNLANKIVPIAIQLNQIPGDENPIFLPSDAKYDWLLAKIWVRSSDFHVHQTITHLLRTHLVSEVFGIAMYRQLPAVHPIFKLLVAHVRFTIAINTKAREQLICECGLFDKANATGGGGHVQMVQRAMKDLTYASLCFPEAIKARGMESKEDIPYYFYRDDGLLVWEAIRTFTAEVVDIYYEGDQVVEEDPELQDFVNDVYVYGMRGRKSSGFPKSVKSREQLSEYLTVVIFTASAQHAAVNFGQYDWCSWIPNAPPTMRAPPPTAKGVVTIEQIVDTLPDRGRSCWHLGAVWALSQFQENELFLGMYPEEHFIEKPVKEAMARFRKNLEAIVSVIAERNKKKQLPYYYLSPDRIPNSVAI
method_notes: Inhibition of 5-LOX in human PMNL cells assessed as A23187-stimulated LTB4 production preincubated for 15 mins followed by A23187 addition and measured after 10 mins by HPLC analysis
Format: cell-based
pIC50: −log10 of the molar value.
Item-by-item account of pIC50

[
  {
    "compound_structure_string": "COc1cc(/C=C/c2ccc(O)c(O)c2)cc(OC)c1",
    "pIC50": 7.30
  },
  {
    "compound_structure_string": "COc1cc(/C=C/c2ccc(O)cc2)cc(OC)c1",
    "pIC50": 6.28
  },
  {
    "compound_structure_string": "Oc1ccc(/C=C/c2cc(O)cc(O)c2)cc1",
    "pIC50": 5.31
  },
  {
    "compound_structure_string": "COc1cc(/C=C/c2ccc(OC)c(O)c2)cc(OC)c1",
    "pIC50": 5.26
  },
  {
    "compound_structure_string": "COc1cc(/C=C/c2ccc(O)c(OC)c2)cc(OC)c1",
    "pIC50": 7.15
  },
  {
    "compound_structure_string": "Oc1cc(O)cc(/C=C/c2ccc(O)c(O)c2)c1",
    "pIC50": 6.62
  },
  {
    "compound_structure_string": "COc1ccc(/C=C/c2cc(OC)cc(OC)c2)cc1",
    "pIC50": 6.12
  }
]
